target: MsepOR13/Orco (MsepOR13/MsepOrco) (Mythimna separata); construct: full-length untagged MsepOR13, 408 aa (ORF 1227 bp), cloned from adult antennal cDNA; pT7Ts cRNA, Xenopus oocytes; with Odorant receptor coreceptor; experiment: two-electrode voltage clamp, Xenopus oocytes, dose-response
Sequence (A0A650FIP0 1-408): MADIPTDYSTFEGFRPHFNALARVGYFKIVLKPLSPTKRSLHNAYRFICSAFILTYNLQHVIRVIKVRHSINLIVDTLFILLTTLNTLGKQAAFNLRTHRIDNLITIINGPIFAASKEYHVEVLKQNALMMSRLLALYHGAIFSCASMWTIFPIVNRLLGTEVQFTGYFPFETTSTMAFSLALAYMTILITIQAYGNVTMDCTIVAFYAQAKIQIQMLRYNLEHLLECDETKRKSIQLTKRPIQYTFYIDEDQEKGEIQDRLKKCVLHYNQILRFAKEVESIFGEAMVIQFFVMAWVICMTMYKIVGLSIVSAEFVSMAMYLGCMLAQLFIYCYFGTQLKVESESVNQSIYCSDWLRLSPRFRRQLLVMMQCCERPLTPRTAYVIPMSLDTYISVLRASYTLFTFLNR
Sequence (B5MEJ5 1-473 partner): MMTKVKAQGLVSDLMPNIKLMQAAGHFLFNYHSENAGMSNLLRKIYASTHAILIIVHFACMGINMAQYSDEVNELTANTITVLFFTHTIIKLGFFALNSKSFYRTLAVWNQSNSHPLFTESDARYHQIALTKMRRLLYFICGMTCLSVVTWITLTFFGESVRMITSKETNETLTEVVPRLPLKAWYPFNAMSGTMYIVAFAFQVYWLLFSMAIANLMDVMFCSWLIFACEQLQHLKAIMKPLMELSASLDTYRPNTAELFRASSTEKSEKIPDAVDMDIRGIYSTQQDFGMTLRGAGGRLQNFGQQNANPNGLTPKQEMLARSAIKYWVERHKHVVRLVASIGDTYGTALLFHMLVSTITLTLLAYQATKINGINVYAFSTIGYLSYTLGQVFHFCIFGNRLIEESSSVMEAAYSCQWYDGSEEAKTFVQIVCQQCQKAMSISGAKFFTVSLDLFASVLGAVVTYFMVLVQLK
assay-readout: pEC50
Lab note — pEC50 values are minus log10 of concentrations in M.

Lookup: Data request, read-out pEC50, for `C=CCc1ccc(O)c(OC)c1`
Found: 5.41
